Origin of the recorded values: ChEMBL document CHEMBL1124865

- Experimental protocol: Terminal half life in dogs at the dose of 30 mg/kg.
- Assay type: ADME, organism-based, Canis lupus familiaris
- Set-up: dose 30 mg/kg
- Particulars: dog, in vivo
Quantity name: half-life (h)

CO/N=C(\C(=O)N[C@@H]1C(=O)N2C(C(=O)[O-])=C(C[n+]3ccc4sccc4c3)CS[C@H]12)c1csc(N)n1 | 1.5

###

- Test system: Pseudomonas aeruginosa
- Experimental protocol: Antibacterial activity against Pseudomonas aeruginosa X528
- Assay type: functional
Field 'label' (enum: YES / NO). Set to YES when MIC is strictly under 4 µg/mL; else NO.

CO/N=C(\C(=O)N[C@@H]1C(=O)N2C(C(=O)[O-])=C(C[n+]3ccc(CC(=O)NO)cc3)CS[C@H]12)c1csc(N)n1 (stereo in doubt; 21) | YES
CO/N=C(\C(=O)N[C@@H]1C(=O)N2C(C(=O)[O-])=C(C[n+]3cccc(CC(=O)O)c3)CS[C@H]12)c1csc(N)n1 (stereo in doubt; 14) | YES
CO/N=C(\C(=O)N[C@@H]1C(=O)N2C(C(=O)[O-])=C(C[n+]3ccc(CC(=O)NO)cc3)CS[C@H]12)c1csc(N)n1 (stereo in doubt; 8) | NO
CO/N=C(\C(=O)N[C@@H]1C(=O)N2C(C(=O)[O-])=C(C[n+]3cccc(CC(=O)O)c3)CS[C@H]12)c1csc(N)n1 (stereo in doubt; 6) | NO
CO/N=C(\C(=O)N[C@@H]1C(=O)N2C(C(=O)[O-])=C(C[n+]3ccc(CC(=O)NO)cc3)CS[C@H]12)c1csc(N)n1 (stereo in doubt; 19) | YES
CO/N=C(\C(=O)N[C@@H]1C(=O)N2C(C(=O)[O-])=C(C[n+]3ccc(CC(=O)NO)cc3)CS[C@H]12)c1csc(N)n1 (stereo in doubt; 13) | NO
CO/N=C(\C(=O)N[C@@H]1C(=O)N2C(C(=O)[O-])=C(C[n+]3ccc(CC(=O)NO)cc3)CS[C@H]12)c1csc(N)n1 (stereo in doubt; 9) | NO
